Where do the numbers come from? From ChEMBL document CHEMBL1156387.

Test system: HL-60
Assay: Induction of cell differentiation in human HL60 cells assessed as superoxide anion production after 4 days by NBT reduction assay
Format: functional, cell-based
Conditions: HL-60, 96 h
Classify: TRUE when EC50 is strictly less than 100 nM; FALSE when EC50 is not.

# input Find out if reported EC50 for CC1=CC(=O)[C@@H](O)[C@]2(C)[C@H]3[C@]4(O)OC[C@]35[C@H]([C@@H](C)[C@H]4O)[C@@H](OC(=O)C=C(C(C)C)C(C)C)C(=O)O[C@@H]5C[C@@H]12 is less than 100 nM
# output TRUE

# input Hello, is EC50 of the following molecule strictly smaller than 100 nM? COC(=O)[C@]12OC[C@]34[C@H]([C@@H](O)[C@@H]1O)[C@@]1(C)CC(=O)C(O)=C(C)[C@@H]1C[C@H]3OC(=O)[C@H](OC(=O)C=C(C)C)[C@@H]24 [BRUSATOL]
# output TRUE

# input Regarding CC1=CC(=O)[C@@H](O)[C@]2(C)[C@H]3[C@]4(O)OC[C@]35[C@H]([C@@H](C)[C@H]4O)[C@@H](OC(=O)CC3(O)CCC3)C(=O)O[C@@H]5C[C@@H]12 , kindly confirm whether its EC50 is beneath 100 nM.
# output FALSE

# input In plain terms, does CC1=CC(=O)[C@@H](O)[C@@]2(C)[C@H]1CC[C@@]13CO[C@]4(C)[C@@H]1C(=O)O[C@H]4[C@H](O)[C@@H]32 [SAMADERIN B] come in under 100 nM for EC50?
# output FALSE

# input Record CC1=CC(=O)[C@@H](O)[C@]2(C)[C@H]3[C@]4(O)OC[C@]35[C@H]([C@@H](C)[C@H]4O)[C@@H](O)C(=O)O[C@@H]5C[C@@H]12 [GLAUCARUBOLONE] : is its EC50 strictly below 100 nM?
# output FALSE
